Target: Histone deacetylase
Assay: Inhibition of HDAC in human HeLa cell extracts using Fluor de Lys as substrate by fluorescence assay
Assay type: protein assay
IC50 under 50 nM gets y, anything at or over 50 nM gets n.

Record `O=C(CCCCCN1C(=O)c2ccccc2Cc2ccccc21)NO` : is its IC50 strictly below 50 nM?
y

----------
Target: Histone deacetylase (Homo sapiens) (UniProt Q13547+O15379+Q9UBN7+Q92769+Q9UQL6+Q8WUI4+Q9BY41+Q96DB2+P56524+Q9UKV0+Q969S8)
Settings: HeLa, at 0.1 µM
Description: Inhibition of HDAC in human HeLa cell extracts using Fluor de Lys as substrate at 0.1 uM by fluorescence assay
Recorded inhibition by entry
Note: unit % is implicit; provide only the numeric part.

Known results for molecules:
O=C(CCCCCN1C(=O)c2ccccc2C(O)c2ccccc21)NO (stereo not drawn)	58
O=C(CCCCCN1C(=O)c2ccccc2C(F)(F)c2ccccc21)NO	50
O=C(CCCCCn1c(=O)c2ccccc2c(=O)c2ccccc21)NO	47
O=C(CCCCCN1C(=O)c2ccccc2Cc2ccccc21)NO	67

Please give the documented inhibition of O=C(CCCCCN1C(=O)c2ccccc2C(F)c2ccccc21)NO (stereo not drawn)
62

----------
Target: Histone deacetylase (Homo sapiens) (UniProt Q13547+O15379+Q9UBN7+Q92769+Q9UQL6+Q8WUI4+Q9BY41+Q96DB2+P56524+Q9UKV0+Q969S8)
Conditions: HeLa, at 0.01 µM
Description: Inhibition of HDAC in human HeLa cell extracts using Fluor de Lys as substrate at 0.01 uM by fluorescence assay
Observed Property: inhibition

In the examples that follow, each entry is paired with its recorded inhibition.
O=C(CCCCCn1c(=O)c2ccccc2c(=O)c2ccccc21)NO	11%
O=C(CCCN1C(=O)c2ccccc2Cc2ccccc21)NO	< 20%
O=C(CCCCN1C(=O)c2ccccc2Cc2ccccc21)NO	< 20%
O=C(CCCCCN1C(=O)c2ccccc2C(F)(F)c2ccccc21)NO	< 20%
COC1(OC)c2ccccc2C(=O)N(CCCCCC(=O)NO)c2ccccc21	< 20%
O=C(CCCCCN1C(=O)c2ccccc2C(F)c2ccccc21)NO (stereo not drawn)	< 20%

Consider the compound `O=C(CCCCCN1C(=O)c2ccccc2Cc2ccccc21)NO` and give its recorded inhibition.
21%

Retrieve inhibition measured for O=C(CCCCCN1C(=O)c2ccccc2C(O)c2ccccc21)NO (stereo not drawn) and print it.
21%

----------
Molecular target: Histone deacetylase (Homo sapiens) (UniProt Q13547+O15379+Q9UBN7+Q92769+Q9UQL6+Q8WUI4+Q9BY41+Q96DB2+P56524+Q9UKV0+Q969S8)
Details: HeLa, at 1 µM
Description: Inhibition of HDAC in human HeLa cell extracts using Fluor de Lys as substrate at 1 uM by fluorescence assay
Observed Property: inhibition

O=C(CCCCCN1C(=O)c2ccccc2C(F)c2ccccc21)NO (stereo not drawn)	84%
O=C(CCCN1C(=O)c2ccccc2Cc2ccccc21)NO	< 20%
O=C(CCCCCn1c(=O)c2ccccc2c(=O)c2ccccc21)NO	77%
O=C(CCCCCN1C(=O)c2ccccc2C(F)(F)c2ccccc21)NO	78%
O=C(CCCCN1C(=O)c2ccccc2Cc2ccccc21)NO	29%

Return inhibition (reported value) for this compound: O=C(CCCCCN1C(=O)c2ccccc2C(O)c2ccccc21)NO (stereo not drawn)
81%

For the compound `COC1(OC)c2ccccc2C(=O)N(CCCCCC(=O)NO)c2ccccc21` , give its reported inhibition.
42%

Answer with the recorded inhibition of `O=C(CCCCCN1C(=O)c2ccccc2Cc2ccccc21)NO` only.
84%

----------
Tested on: HCT-116
Experiment: Antiproliferative activity against human HCT116 cells after 5 days by Alamar Blue assay
Type: functional, cell-based
Settings: HCT-116, 120 h
Observed Property: pIC50
Notebook: values listed as pIC50 are -log10 of the concentration (mol/L).

Take a look at these entries with their results.
O=C(CCCCCN1C(=O)c2ccccc2Cc2ccccc21)NO	6.15
O=C(CCCCCN1C(=O)c2ccccc2C(O)c2ccccc21)NO (stereo not given)	5.70
O=C(CCCCCN1C(=O)c2ccccc2C(F)(F)c2ccccc21)NO	6.22

Proceeding to the next compound to report its pIC50.
Hello, please tell me recorded pIC50 for this one: O=C(CCCCCN1C(=O)c2ccccc2C(F)c2ccccc21)NO (stereo not given)
5.80

----------
Molecular target: Histone deacetylase
Assay: Inhibition of HDAC in human HeLa cell extracts using Fluor de Lys as substrate by fluorescence assay
Format: protein assay
Observed Property: IC50 (µM)
The figure you give is taken to be in µM; do not add the unit.

O=C(CCCCCn1c(=O)c2ccccc2c(=O)c2ccccc21)NO	0.153
O=C(CCCCCN1C(=O)c2ccccc2C(F)(F)c2ccccc21)NO	0.111
O=C(CCCCCN1C(=O)c2ccccc2C(F)c2ccccc21)NO (centres undefined)	0.053

API: the following record is the query input.
Specify IC50 for O=C(CCCCCN1C(=O)c2ccccc2C(O)c2ccccc21)NO (centres undefined) , system Histone deacetylase.
0.06

----------
Biological target: Histone deacetylase (Homo sapiens) (UniProt Q13547+O15379+Q9UBN7+Q92769+Q9UQL6+Q8WUI4+Q9BY41+Q96DB2+P56524+Q9UKV0+Q969S8)
Conditions: HeLa, at 0.1 µM
Observed Property: inhibition

// worked examples, inhibition included
COC1(OC)c2ccccc2C(=O)N(CCCCCC(=O)NO)c2ccccc21	< 20%
O=C(CCCCN1C(=O)c2ccccc2Cc2ccccc21)NO	< 20%

For the molecule `O=C(CCCN1C(=O)c2ccccc2Cc2ccccc21)NO` , report inhibition.
< 20%
